- assay.target: CDK7/Cyclin H/MNAT1 (Homo sapiens, UniProt P50613)
- Sequence (P50613 whole entry): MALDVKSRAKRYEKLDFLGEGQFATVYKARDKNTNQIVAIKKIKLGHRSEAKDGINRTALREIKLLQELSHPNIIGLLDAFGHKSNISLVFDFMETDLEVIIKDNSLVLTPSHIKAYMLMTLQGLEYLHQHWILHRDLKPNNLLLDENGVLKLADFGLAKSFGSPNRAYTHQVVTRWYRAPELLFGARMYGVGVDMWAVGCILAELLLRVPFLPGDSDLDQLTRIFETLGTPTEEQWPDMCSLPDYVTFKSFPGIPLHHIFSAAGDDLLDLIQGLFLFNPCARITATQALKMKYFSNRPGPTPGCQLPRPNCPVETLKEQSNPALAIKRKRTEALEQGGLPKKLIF
- Sequence (P51946 whole entry partner): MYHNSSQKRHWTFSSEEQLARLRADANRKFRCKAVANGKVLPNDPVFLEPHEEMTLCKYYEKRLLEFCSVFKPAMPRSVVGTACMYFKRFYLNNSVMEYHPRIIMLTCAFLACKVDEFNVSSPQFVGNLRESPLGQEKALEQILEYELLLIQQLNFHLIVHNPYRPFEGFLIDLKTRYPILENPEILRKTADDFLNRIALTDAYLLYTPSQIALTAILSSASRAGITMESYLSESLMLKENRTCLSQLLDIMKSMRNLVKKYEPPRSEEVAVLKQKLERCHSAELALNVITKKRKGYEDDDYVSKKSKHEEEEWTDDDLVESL
- Sequence (P51948 whole entry partner): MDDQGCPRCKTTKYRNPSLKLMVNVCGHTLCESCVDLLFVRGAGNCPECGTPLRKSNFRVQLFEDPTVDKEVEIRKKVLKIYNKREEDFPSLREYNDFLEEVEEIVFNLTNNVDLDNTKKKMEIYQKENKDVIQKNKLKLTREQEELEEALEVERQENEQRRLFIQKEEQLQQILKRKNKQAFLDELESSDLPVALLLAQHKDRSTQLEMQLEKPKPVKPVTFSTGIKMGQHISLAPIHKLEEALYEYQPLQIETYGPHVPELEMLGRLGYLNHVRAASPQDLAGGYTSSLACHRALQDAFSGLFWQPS
- assay.summary: Enzymatic assay for CDK7 (LANCE Ultra kinase assay, FRET based)
- condition.info: ATP at Km
measure.name: IC50

> print(dat)
                                   molecule                              assay.target     assay.value
1  C=C(F)C(=O)Nc1ccc2c(-c3ccccc3CNc3nc(NC[C@@H]4CNCCO4)nc4c(C(C)C)cnn34)nccc2c1  CDK7/Cyclin H/MNAT1 (Homo sapiens, UniProt P50613)        < 100 nM
2  Cc1cc(NCc2ccccc2-c2nccc3cc(NC(=O)/C=C/CN(C)C)ccc23)n2ncc(C(C)C)c2n1  CDK7/Cyclin H/MNAT1 (Homo sapiens, UniProt P50613)        < 100 nM
3  CC(C)c1cnn2c(NCc3ccccc3-c3nccc4cc(NC(=O)/C=C/CN(C)C)ccc34)nc(NC[C@H]3CNC[C@@H]3O)nc12  CDK7/Cyclin H/MNAT1 (Homo sapiens, UniProt P50613)        < 100 nM
4  CO[C@H]1CC[C@H](Nc2nc(NCc3c(C)cccc3-n3ccc4cc(NC(=O)/C=C/CN(C)C)ccc43)n3ncc(C(C)C)c3n2)CC1  CDK7/Cyclin H/MNAT1 (Homo sapiens, UniProt P50613)  100 to 1000 nM
5  CC(C)c1cnn2c(NCc3cccc(NC4CCCN(C(=O)/C=C/CN(C)C)CC4)c3)nc(N3CCC(N)CC3)nc12 (racemic)  CDK7/Cyclin H/MNAT1 (Homo sapiens, UniProt P50613)        < 100 nM

# context switch: different molecule, same IC50
Name the reported IC50 value associated with the molecule C=C(F)C(=O)Nc1ccc2c(-c3ccccc3CNc3nc(NC4CC(OC)C4)nc4c(C(C)C)cnn34)nccc2c1 (stereo not drawn)
100 to 1000 nM

====

- assay.target: CDK1/Cyclin B (Homo sapiens, UniProt P06493)
- Construct: purchased Invitrogen PR4768C
- Sequence (P06493 whole entry): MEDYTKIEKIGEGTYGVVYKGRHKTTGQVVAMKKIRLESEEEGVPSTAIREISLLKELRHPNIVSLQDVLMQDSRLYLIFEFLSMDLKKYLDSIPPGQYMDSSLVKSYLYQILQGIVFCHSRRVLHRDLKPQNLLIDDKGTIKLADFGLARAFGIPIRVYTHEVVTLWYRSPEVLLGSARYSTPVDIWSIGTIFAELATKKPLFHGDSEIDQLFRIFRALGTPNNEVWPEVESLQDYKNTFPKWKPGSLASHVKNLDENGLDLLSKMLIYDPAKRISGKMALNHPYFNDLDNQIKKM
- Sequence (P14635 whole entry partner): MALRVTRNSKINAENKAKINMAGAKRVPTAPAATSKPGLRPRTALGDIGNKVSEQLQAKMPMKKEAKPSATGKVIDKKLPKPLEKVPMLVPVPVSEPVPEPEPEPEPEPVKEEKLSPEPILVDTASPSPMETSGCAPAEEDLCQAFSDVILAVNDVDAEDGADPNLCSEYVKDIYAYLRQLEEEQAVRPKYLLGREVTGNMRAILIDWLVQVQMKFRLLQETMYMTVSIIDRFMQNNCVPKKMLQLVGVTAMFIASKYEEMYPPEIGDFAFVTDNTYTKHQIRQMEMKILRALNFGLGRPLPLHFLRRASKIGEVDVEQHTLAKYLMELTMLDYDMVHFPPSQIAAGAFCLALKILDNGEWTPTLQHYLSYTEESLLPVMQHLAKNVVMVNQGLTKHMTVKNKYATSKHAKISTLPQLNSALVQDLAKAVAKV
- assay.summary: Enzymatic assay for CDK1 (LANCE Ultra kinase assay, FRET based)
- Type: biochemical
pIC50: −log10 of the molar value.
measure.name: pIC50

Name the reported pIC50 value associated with the compound `CC(C)c1cnn2c(NCc3cccc(NC(=O)c4cccc(NC(=O)/C=C/CN(C)C)c4)c3)nc(N3CCC(N)CC3)nc12`
< 6.00

====

- assay.target: 28 CDKs family protein kinases (Homo sapiens, UniProt Q00534)
- Construct: purchased ProQinase GmbH; host or cells: Sf9 insect cells or E. coli
- Sequence (Q00534 whole entry): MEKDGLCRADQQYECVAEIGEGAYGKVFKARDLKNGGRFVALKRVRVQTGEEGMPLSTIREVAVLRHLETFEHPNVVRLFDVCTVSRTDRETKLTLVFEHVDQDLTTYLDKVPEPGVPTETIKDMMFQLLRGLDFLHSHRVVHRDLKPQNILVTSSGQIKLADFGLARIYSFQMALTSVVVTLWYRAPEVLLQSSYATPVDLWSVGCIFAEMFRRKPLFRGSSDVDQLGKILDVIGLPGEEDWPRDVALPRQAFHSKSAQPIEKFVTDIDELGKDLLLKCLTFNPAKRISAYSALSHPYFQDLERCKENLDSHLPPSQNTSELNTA
- Sequence (P30281 whole entry partner): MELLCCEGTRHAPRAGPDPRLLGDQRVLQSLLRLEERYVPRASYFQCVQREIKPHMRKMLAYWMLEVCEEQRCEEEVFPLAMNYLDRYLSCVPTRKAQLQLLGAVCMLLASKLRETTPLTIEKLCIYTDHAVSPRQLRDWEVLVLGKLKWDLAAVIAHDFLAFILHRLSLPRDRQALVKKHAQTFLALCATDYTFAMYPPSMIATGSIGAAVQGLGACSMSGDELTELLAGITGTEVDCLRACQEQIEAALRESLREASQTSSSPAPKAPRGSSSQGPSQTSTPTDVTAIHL
- assay.summary: In vitro IC50 profile for CDKs family kinase (33PanQinase Activity Assay, ProQinase)
- Type: biochemical
- condition.info: CDK6/CycD3; read-out: CDK7 selectivity profile in CDKs family, IC50
measure.name: IC50

Name the reported IC50 value associated with the compound `CC(C)c1cnn2c(NCc3ccccc3-c3nccc4cc(NC(=O)/C=C/CN(C)C)ccc34)nc(N3CCC(N)CC3)nc12`
> 10 µM

====

- assay.target: 28 CDKs family protein kinases (Homo sapiens, UniProt Q8IZL9)
- Construct: purchased ProQinase GmbH; host or cells: Sf9 insect cells or E. coli
- Sequence (Q8IZL9 whole entry): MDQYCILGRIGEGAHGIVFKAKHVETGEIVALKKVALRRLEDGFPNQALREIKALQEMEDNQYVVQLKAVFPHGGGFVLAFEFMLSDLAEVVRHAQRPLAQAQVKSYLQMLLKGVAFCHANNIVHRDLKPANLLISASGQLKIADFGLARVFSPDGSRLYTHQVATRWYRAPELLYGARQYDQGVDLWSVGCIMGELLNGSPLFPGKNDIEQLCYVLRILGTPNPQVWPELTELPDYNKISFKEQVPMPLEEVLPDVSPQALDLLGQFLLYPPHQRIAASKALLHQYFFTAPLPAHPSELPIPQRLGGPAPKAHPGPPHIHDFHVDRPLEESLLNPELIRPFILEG
- Sequence (O60563 whole entry partner): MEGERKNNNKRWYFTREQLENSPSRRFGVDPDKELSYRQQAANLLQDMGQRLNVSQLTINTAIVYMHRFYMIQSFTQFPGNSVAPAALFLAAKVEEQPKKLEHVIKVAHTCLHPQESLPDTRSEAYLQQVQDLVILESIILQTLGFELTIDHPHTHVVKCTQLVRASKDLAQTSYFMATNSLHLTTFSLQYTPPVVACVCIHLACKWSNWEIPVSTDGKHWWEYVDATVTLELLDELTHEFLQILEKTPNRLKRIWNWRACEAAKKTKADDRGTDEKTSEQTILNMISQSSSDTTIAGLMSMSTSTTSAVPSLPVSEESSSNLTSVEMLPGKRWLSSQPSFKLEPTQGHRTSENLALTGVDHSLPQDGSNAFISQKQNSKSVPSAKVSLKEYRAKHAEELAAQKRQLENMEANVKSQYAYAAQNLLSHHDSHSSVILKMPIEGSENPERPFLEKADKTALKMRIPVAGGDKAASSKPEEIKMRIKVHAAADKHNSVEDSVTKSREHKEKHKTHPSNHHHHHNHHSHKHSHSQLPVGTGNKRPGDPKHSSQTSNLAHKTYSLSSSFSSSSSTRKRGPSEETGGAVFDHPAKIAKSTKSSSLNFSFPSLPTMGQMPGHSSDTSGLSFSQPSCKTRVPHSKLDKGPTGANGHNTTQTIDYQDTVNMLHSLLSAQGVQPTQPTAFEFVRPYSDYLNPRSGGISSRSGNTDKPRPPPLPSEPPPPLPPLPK
- assay.summary: In vitro IC50 profile for CDKs family kinase (33PanQinase Activity Assay, ProQinase)
- Assay type: biochemical
- condition.info: CDK20/CycT1; read-out: CDK7 selectivity profile in CDKs family, IC50
pIC50: −log10 of the molar value.
measure.name: pIC50

Name the reported pIC50 value associated with the compound `CC(C)c1cnn2c(NCc3ccccc3-c3nccc4cc(NC(=O)/C=C/CN(C)C)ccc34)nc(N3CCC(N)CC3)nc12`
< 5.00

====

- assay.target: 28 CDKs family protein kinases (Homo sapiens, UniProt P50750)
- Construct: purchased ProQinase GmbH; host or cells: Sf9 insect cells or E. coli
- Sequence (P50750 whole entry): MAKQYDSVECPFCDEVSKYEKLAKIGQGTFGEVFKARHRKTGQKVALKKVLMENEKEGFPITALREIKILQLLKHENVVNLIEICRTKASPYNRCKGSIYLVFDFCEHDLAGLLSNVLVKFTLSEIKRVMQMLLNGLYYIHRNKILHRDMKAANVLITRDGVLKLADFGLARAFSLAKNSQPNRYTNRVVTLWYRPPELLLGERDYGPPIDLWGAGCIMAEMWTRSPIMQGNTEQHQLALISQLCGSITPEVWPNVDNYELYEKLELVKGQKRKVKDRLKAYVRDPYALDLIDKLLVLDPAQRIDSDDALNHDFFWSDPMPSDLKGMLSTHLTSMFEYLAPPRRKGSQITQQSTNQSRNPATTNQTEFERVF
- Sequence (O75909 whole entry partner): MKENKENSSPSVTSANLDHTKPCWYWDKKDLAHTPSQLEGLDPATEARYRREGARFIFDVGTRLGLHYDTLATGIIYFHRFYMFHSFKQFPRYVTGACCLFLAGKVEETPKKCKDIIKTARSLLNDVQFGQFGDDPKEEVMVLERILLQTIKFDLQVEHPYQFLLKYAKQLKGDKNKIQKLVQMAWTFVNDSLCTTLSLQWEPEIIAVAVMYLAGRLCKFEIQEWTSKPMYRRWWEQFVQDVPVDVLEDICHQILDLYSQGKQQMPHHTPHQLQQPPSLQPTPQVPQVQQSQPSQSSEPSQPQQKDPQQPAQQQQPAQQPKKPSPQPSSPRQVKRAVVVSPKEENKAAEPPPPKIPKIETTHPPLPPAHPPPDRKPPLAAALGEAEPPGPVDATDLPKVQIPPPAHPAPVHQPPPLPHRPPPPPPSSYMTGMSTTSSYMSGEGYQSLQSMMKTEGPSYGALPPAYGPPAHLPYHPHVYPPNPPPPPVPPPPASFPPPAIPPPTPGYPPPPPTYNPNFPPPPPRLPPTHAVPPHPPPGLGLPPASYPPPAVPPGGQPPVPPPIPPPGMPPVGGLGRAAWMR
- assay.summary: In vitro IC50 profile for CDKs family kinase (33PanQinase Activity Assay, ProQinase)
- Type: biochemical
- condition.info: CDK9/CycK; read-out: CDK7 selectivity profile in CDKs family, IC50
measure.name: IC50

Name the reported IC50 value associated with the molecule CC(C)c1cnn2c(NCc3ccccc3-c3nccc4cc(NC(=O)/C=C/CN(C)C)ccc34)nc(N3CCC(N)CC3)nc12 [Compound 11]
> 10 µM

====

- assay.target: CDK7/Cyclin H/MNAT1 (Homo sapiens)
- assay.summary: Enzymatic assay for CDK7 (LANCE Ultra kinase assay, FRET based)
- condition.info: ATP at Km
measure.name: IC50

Check out these entries, answers already filled in.
> print(dat)
                                   molecule     assay.value
1  CC(C)c1cnn2c(NCc3ccccc3-c3nccc4cc(NC(=O)/C=C/CN(C)C)ccc34)nc(NC[C@H]3CC[C@H](O)CC3)nc12 [Compound 33]  100 to 1000 nM
2  CC(C)c1cnn2c(NCc3ccccc3-c3nccc4cc(NC(=O)/C=C/CN(C)C)ccc34)nc(N3CCC(N)CC3)nc12 [Compound 11]        < 100 nM
3  CC(C)c1cnn2c(NCc3ccccc3-c3cc4cc(NC(=O)/C=C/CN(C)C)ccc4[nH]3)nc(N3CCC(N)CC3)nc12 [Compound 19]        < 100 nM
4  C=C(F)C(=O)Nc1ccc2c(-c3ccccc3CNc3nc(N4CCC(OCC)CC4)nc4c(C(C)C)cnn34)nccc2c1 [Compound 85]  100 to 1000 nM
5  C=CC(=O)Nc1ccc2c(-c3ccccc3CNc3nc(N[C@H]4CC[C@H](OC)CC4)nc4c(C(C)C)cnn34)nccc2c1 [Compound 95]        < 100 nM
6  C=C(F)C(=O)Nc1ccc2c(-c3ccccc3CNc3nc(NC[C@H]4CNC[C@@H]4O)nc4c(C(C)C)cnn34)nccc2c1 [Compound 83]        < 100 nM

Find the measured IC50: item C=C(F)C(=O)Nc1ccc2c(-c3ccccc3CNc3nc(N[C@@H]4CC[C@@H](C)NC4)nc4c(C(C)C)cnn34)nccc2c1 [Compound 163] , target or system CDK7/Cyclin H/MNAT1 (Homo sapiens).
< 100 nM

Find the measured IC50: item C=CC(=O)Nc1ccc2c(-c3ccccc3CNc3nc(Nc4cccc(OC5CCC(C)(C)NC5)c4)nc4c(C(C)C)cnn34)nccc2c1 (centres unmarked) [Compound 194] , target or system CDK7/Cyclin H/MNAT1 (Homo sapiens).
< 100 nM

====

- assay.target: CDK7/Cyclin H/MNAT1 (Homo sapiens, UniProt P50613)
- assay.summary: Enzymatic assay for CDK7 (LANCE Ultra kinase assay, FRET based)
- condition.info: ATP at Km
Reported IC50 values are given for each entry in this list.

Check out these entries, answers already filled in.
> print(dat)
                                   compound  measure.name     assay.value
1  CC(C)c1cnn2c(NCc3ccccc3-c3nccc4cc(NC(=O)/C=C/CN(C)C)ccc34)nc(N3C[C@H]4CC[C@@H](C3)O4)nc12          IC50  100 to 1000 nM
2  C=C(F)C(=O)Nc1ccc2c(-c3ccccc3CNc3nc(N4CCC(OC(F)(F)F)CC4)nc4c(C(C)C)cnn34)nccc2c1          IC50       > 1000 nM
3  C/C=C/C(=O)Nc1ccc2c(-c3ccccc3CNc3nc(NCC4CNCCO4)nc4c(C(C)C)cnn34)nccc2c1 (racemic)          IC50        < 100 nM
4  CC(C)c1cnn2c(NCc3ccccc3-c3nccc4cc(NC(=O)/C=C/CN(C)C)ccc34)nc(NC3CCC(C)(C)NC3)nc12 (centres unmarked)          IC50        < 100 nM
5  C=C(F)C(=O)Nc1ccc2c(-c3ccccc3CNc3nc(NCC4CCNCC4O)nc4c(C(C)C)cnn34)nccc2c1 (centres unmarked)          IC50        < 100 nM

Name the reported IC50 value associated with the compound `C=C(F)C(=O)Nc1ccc2c(-c3ccccc3CNc3nc(NC[C@@H]4CCNC[C@@H]4O)nc4c(C(C)C)cnn34)nccc2c1`
< 100 nM

Name the reported IC50 value associated with the compound `CC(C)c1cnn2c(NCc3ccccc3-c3nccc4cc(NC(=O)/C=C/CN(C)C)ccc34)nc(N3CCOCC3)nc12`
100 to 1000 nM

Name the reported IC50 value associated with the compound `CC(C)c1cnn2c(NCc3ccccc3Oc3ccc(NC(=O)/C=C/CN(C)C)cc3)nc(N3CCC(N)CC3)nc12`
< 100 nM

Name the reported IC50 value associated with the compound `CC(C)c1cnn2c(NCc3ccccc3-c3nccc4cc(NC(=O)/C=C/CN(C)C)ccc34)nc(NC3CCC(F)(F)CC3)nc12`
< 100 nM

====

- assay.target: CDK7/Cyclin H/MNAT1 (Homo sapiens, UniProt P50613)
- assay.summary: Enzymatic assay for CDK7 (LANCE Ultra kinase assay, FRET based)
- condition.info: ATP at Km
pIC50: −log10 of the molar value.
Reported pIC50 values are given for each entry in this list.

Check out these entries, answers already filled in.
> print(dat)
                                   molecule  measure.name   assay.value
1  C=C(F)C(=O)Nc1ccc2c(-c3ccccc3CNc3nc(NC4CCC(OC)C4)nc4c(C(C)C)cnn34)nccc2c1 (racemic) [Compound 98]         pIC50  6.00 to 7.00
2  CC(C)c1cnn2c(NCc3ccccc3-c3nccc4cc(NC(=O)/C=C/CN(C)C)ccc34)nc(N3CCC(N(C)C)CC3)nc12         pIC50        > 7.00

# context switch: different molecule, same pIC50
Name the reported pIC50 value associated with the molecule `CC(C)c1cnn2c(NCc3ccccc3-c3nccc4cc(NC(=O)/C=C/CN(C)C)ccc34)nc(N3CCC4(CCOC4)CC3)nc12`
6.00 to 7.00
